- systemUnderTest: human FPRL2 (Homo sapiens)
- Sequence (P25089 1-353): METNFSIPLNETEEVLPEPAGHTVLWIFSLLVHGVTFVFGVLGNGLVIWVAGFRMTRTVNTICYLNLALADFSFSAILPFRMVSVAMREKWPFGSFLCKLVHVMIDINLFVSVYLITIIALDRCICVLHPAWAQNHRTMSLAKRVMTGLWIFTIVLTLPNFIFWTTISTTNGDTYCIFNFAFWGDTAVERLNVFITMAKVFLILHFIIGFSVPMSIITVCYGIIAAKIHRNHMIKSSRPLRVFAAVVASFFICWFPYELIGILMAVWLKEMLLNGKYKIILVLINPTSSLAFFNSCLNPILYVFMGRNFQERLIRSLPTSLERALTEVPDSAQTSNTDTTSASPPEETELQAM
- testName: Intracellular calcium measurements (FLIPR), agonistic activity in HEK293-hFPRL2-Gα16 cells
- conditionInfo: Fluo-4 calcium FLIPR, normalized to GLY14-Humanin 100 nM
pEC50: −log10 of the molar value.
parameter: pEC50

Example results:
COc1ccc(CNC(=O)[C@H]2[C@H](C(=O)NCCCCN3CCCC3)[C@H]3C=C[C@@H]2C32CC2)cc1Cl (racemic) ... 6.63
O=C(NCCCCN1CCCC1)[C@H]1[C@H](C(=O)Nc2ccc3scnc3c2)[C@@H]2C=C[C@H]1C21CC1 (racemic) ... 6.44

1. CC(=O)N1CCN(CCCCNC(=O)[C@H]2[C@H](C(=O)Nc3ccc(Br)cc3)[C@@H]3C=C[C@H]2C32CC2)CC1
2. O=C(Nc1ncc(Br)s1)C1C(C(=O)NC2CCC(CO)CC2)C2CCC1C21CC1 (single isomer, unassigned) [Example 411]
3. O=C(NCCCCN1CCCC1)[C@H]1[C@H](C(=O)NCC2CCCCC2)[C@@H]2C=C[C@H]1C21CC1 (racemic)
4. O=C(NCCCCN1CCCC1)[C@H]1[C@H](C(=O)NCc2c(F)cc(F)cc2F)[C@@H]2C=C[C@H]1C21CC1 (racemic)
Place the items in sequence of falling pEC50. Please respond with the labels ordered as the question requires. 1, 3, 4, 2
(1: 7.21, 3: 6.57, 4: 6.29, 2: 5.19)

* * *

- systemUnderTest: human ALX receptor (Homo sapiens)
- Sequence (P25090 whole entry): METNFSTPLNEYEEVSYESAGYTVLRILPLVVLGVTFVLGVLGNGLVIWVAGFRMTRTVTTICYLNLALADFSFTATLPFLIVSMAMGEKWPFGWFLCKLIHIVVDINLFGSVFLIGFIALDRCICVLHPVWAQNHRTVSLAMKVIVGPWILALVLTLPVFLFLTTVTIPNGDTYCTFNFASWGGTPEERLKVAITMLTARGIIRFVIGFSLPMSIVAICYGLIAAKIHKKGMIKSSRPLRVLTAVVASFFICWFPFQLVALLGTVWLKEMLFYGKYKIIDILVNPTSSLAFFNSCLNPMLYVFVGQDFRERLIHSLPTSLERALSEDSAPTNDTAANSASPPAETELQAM
- testName: Intracellular calcium measurements (FLIPR), agonistic activity in HEK293-hALXR-Gα16 cells
- conditionInfo: Fluo-4 calcium FLIPR, normalized to WKYMVm 10 nM
pEC50: −log10 of the molar value.
parameter: pEC50

Example results:
COCCCNC(=O)[C@H]1[C@H](C(=O)Nc2ccc(Br)cc2)[C@@H]2C=C[C@H]1C21CC1 (racemic) [Example 53] ... 7.80
O=C(NCCCN1CCOCC1)[C@H]1[C@H](C(=O)Nc2ccc(Br)cc2)[C@@H]2C=C[C@H]1C21CC1 (racemic) [Example 87] ... 6.81
O=C(NC1CCCCC1)[C@H]1[C@H](C(=O)Nc2ccc(Br)cc2)[C@@H]2C=C[C@H]1C21CC1 (racemic) [Example 93] ... 6.67
O=C(NCCCCN1CCCC1)[C@H]1[C@H](C(=O)Nc2ccc(Br)cc2)[C@@H]2CC[C@H]1C21CC1 [Example 113] ... 9.46

I. O=C(NCCCCCN1CCCC1)[C@H]1[C@H](C(=O)Nc2ccc(Br)cc2)[C@@H]2C=C[C@H]1C21CC1 [Example 221]
II. CCOCCCNC(=O)[C@H]1[C@H](C(=O)Nc2ccc(Br)cc2)[C@@H]2C=C[C@H]1C21CC1 (racemic) [Example 17]
Pick the one with the larger pEC50: I vs II Identify your pick by its label. I
(I: 9.18, II: 8.74)
